system: Cynomolgus monkey; test: Metabolic stability in cynomolgus monkey liver S9 fraction; format: ADME, Macaca fascicularis
Quick rule for you: Stability under 20% gets 1 (yes), anything else gets 0 (no).

> print(dat)
                                    compound  answer.label
 1  COC(=O)[C@@H](C)NP(=O)(OC[C@H]1C=C[C@@H](n2cnc3c(N)ncnc32)C1)Oc1ccccc1 (some centres undefined)        0 (no)
 2  COC(=O)CNP(=O)(OC[C@H]1C=C[C@@H](n2cnc3c(N)ncnc32)C1)Oc1ccccc1 (some centres undefined)        0 (no)
 3  COC(=O)[C@@H](NP(=O)(OC[C@H]1C=C[C@@H](n2cnc3c(N)ncnc32)C1)Oc1ccccc1)C(C)C (some centres undefined)       1 (yes)
 4  COC(=O)[C@H](CCSC)NP(=O)(OC[C@H]1C=C[C@@H](n2cnc3c(N)ncnc32)C1)Oc1ccccc1 (some centres undefined)       1 (yes)
 5  C[C@H](NP(=O)(OC[C@H]1C=C[C@@H](n2cnc3c(N)ncnc32)C1)Oc1ccccc1)C(=O)OCC(C)(C)C (some centres undefined)       1 (yes)
 6  COC(=O)c1ccc(OP(=O)(N[C@@H](C)C(=O)OC)OC[C@H]2C=C[C@@H](n3cnc4c(N)ncnc43)C2)cc1 (some centres undefined)       1 (yes)
 7  COC(=O)[C@H](Cc1ccc(O)cc1)NP(=O)(OC[C@H]1C=C[C@@H](n2cnc3c(N)ncnc32)C1)Oc1ccccc1 (some centres undefined)       1 (yes)
 8  COC(=O)[C@H](C)NP(=O)(OC[C@H]1C=C[C@@H](n2cnc3c(N)ncnc32)C1)Oc1ccccc1 (some centres undefined)        0 (no)
 9  COC(=O)[C@H](CC(C)C)NP(=O)(OC[C@H]1C=C[C@@H](n2cnc3c(N)ncnc32)C1)Oc1ccccc1 (some centres undefined)       1 (yes)
10  C[C@H](NP(=O)(OC[C@H]1C=C[C@@H](n2cnc3c(N)ncnc32)C1)Oc1ccccc1)C(=O)OCc1ccccc1 (some centres undefined)       1 (yes)
11  CCOC(=O)c1ccccc1OP(=O)(N[C@@H](C)C(=O)OC)OC[C@H]1C=C[C@@H](n2cnc3c(N)ncnc32)C1 (some centres undefined)        0 (no)
12  COC(=O)C[C@H](NP(=O)(OC[C@H]1C=C[C@@H](n2cnc3c(N)ncnc32)C1)Oc1ccccc1)C(=O)OC (some centres undefined)       1 (yes)
13  CCOC(=O)[C@H](C)NP(=O)(OC[C@H]1C=C[C@@H](n2cnc3c(N)ncnc32)C1)Oc1ccccc1 (some centres undefined)       1 (yes)
14  COC(=O)[C@H](CCCCN)NP(=O)(OC[C@H]1C=C[C@@H](n2cnc3c(N)ncnc32)C1)Oc1ccccc1.O=C(O)C(F)(F)F (some centres undefined)        0 (no)
15  CC[C@H](C)[C@H](NP(=O)(OC[C@H]1C=C[C@@H](n2cnc3c(N)ncnc32)C1)Oc1ccccc1)C(=O)OC (some centres undefined)       1 (yes)
16  COC(=O)[C@H](C)NP(=O)(OC[C@H]1C=C[C@@H](n2cnc3c(N)ncnc32)C1)Oc1cccc(C(F)(F)F)c1 (some centres undefined)        0 (no)
17  C[C@H](NP(=O)(OC[C@H]1C=C[C@@H](n2cnc3c(N)ncnc32)C1)Oc1ccccc1)C(=O)OC(C)(C)C (some centres undefined)       1 (yes)
18  CCOC(=O)c1cccc(OP(=O)(N[C@@H](C)C(=O)OC)OC[C@H]2C=C[C@@H](n3cnc4c(N)ncnc43)C2)c1 (some centres undefined)       1 (yes)
19  CC(C)OC(=O)[C@H](C)NP(=O)(OC[C@H]1C=C[C@@H](n2cnc3c(N)ncnc32)C1)Oc1ccccc1 (some centres undefined)       1 (yes)
